# Tested on: PPP1R12A (Mypt1) exon 24 flanking region
# EXPERIMENTAL_PROTOCOL: Surveyor nuclease assay on genomic PCR products of transfected HEK293T cells
# Format: cell-based, human
# REPORTED_CONDITIONS: constructs tested individually, control ~750 bp
Give Surveyor nuclease products (sizes) for every item shown.

Some solved cases for reference:
sgRNA11: guide RNA, target … (SEQ ID NO: 15); tested cloned in px601 SaCas9 plasmid (nucleic acid) guide: GUUAUGUGUAGCAUUAAUGCAGUUUUAGUACUCUGGAAACAGAAUCUACUAAAACAAGGCAAAAUGCCGUGUUUAUCUCGUCAACUUGUUGGCGAGAUUUUU: 320/430
sgRNA12: guide RNA, target … (SEQ ID NO: 16); tested cloned in px601 SaCas9 plasmid (nucleic acid) guide: GAUACAAAGCUAUAAAGUCAGGUUUUAGUACUCUGGAAACAGAAUCUACUAAAACAAGGCAAAAUGCCGUGUUUAUCUCGUCAACUUGUUGGCGAGAUUUUU: 270/480

For the molecule shown here, sgRNA9: guide RNA, target … (SEQ ID NO: 13); tested cloned in px601 SaCas9 plasmid (nucleic acid) guide: GAGAAUGCUUAUCAUUUAAGGGUUUUAGUACUCUGGAAACAGAAUCUACUAAAACAAGGCAAAAUGCCGUGUUUAUCUCGUCAACUUGUUGGCGAGAUUUUU , give the reported Surveyor nuclease products (sizes).
330/420
